Experiment: Antiangiogenic activity against VEGF-A stimulated human retinal endothelial cell assessed as cell proliferation measured after 48 hrs by crystal violet assay
Format: functional
Conditions: HREC
Task for the reader: assign each of the following compounds its reported pIC50.
Answers are plain numbers, as −log10 of the molar value.

OC(CCCN1CCC(O)(c2ccc(Cl)cc2)CC1)c1ccc(F)cc1 (racemic) [HYDROXYHALOPERIDOL] : 3.89

Please look at the following compound next.
Problem: Any idea what its pIC50 is? The compound is CCCC(CCC)C(=O)O
Result: 2.84

###

Test: Antiproliferative activity against VEGF-A stimulated human retinal endothelial cell assessed as reduction in cell viability measured after 24 hrs by MTT assay
Assay type: functional
Conditions: HREC
propertyMeasured: IC50

Problem: Any idea what its IC50 is? The compound is OC(CCCN1CCC(O)(c2ccc(Cl)cc2)CC1)c1ccc(F)cc1 (racemic) [HYDROXYHALOPERIDOL]
Result: > 200 µM
